Form field: Change (one value per entry).
System: Canis familiaris
procedure.details: In vivo percent change in renal blood flow at 30 ug/Kg/min.
Type: functional, Canis lupus familiaris, Kidney
Square brackets hold non-standard residues; d marks the D form. Peptide text beside a SMILES is read from it. * marks the point of attachment. ξ: configuration not given here. ξαMeF = CC(N)(Cc1ccccc1)C(=O)O; Bz = O=C(c1ccccc1)*

compound: CC(Cc1ccccc1)(NC(=O)[C@@H]1CCCN1C(=O)c1ccccc1)C(=O)N[C@@H](CCCN=C(N)N)C(=O)O (some centres undefined) (Bz-Pro-[ξαMeF]-Arg-OH)
Change: 3%
--
compound: CC(Cc1ccccc1)(NC(=O)[C@@H]1CCCN1C(=O)CCCc1ccccc1)C(=O)NCCCN.Cl (some centres undefined)
Change: 5.5%
--
compound: COc1ccc(CC(C)(NC(=O)[C@@H]2CCCN2C(=O)CCCc2ccc(O)cc2)C(=O)NCCCN)cc1OC.Cl (some centres undefined)
Change: 16.5%
--
compound: CC(CN[C@@H](CCCN=C(N)N)C(=O)O)(Cc1ccccc1)NC(=O)[C@@H]1CCCN1 (some centres undefined)
Change: 8%

###

Tested on: Canis familiaris
procedure.details: In vivo percent change in canine heart rate at 300 ug/Kg/min.
Format: functional, Canis lupus familiaris
Square brackets hold non-standard residues; d marks the D form. Peptide text beside a SMILES is read from it. * marks the point of attachment. ξ: configuration not given here. Butanoyl(4-(4-HOPh)) = O=C(CCCc1ccc(O)cc1)*; ξαMeF = CC(N)(Cc1ccccc1)C(=O)O
Form field: Change (one value per entry).
reported.endpoint: Change (%)

compound: Cl.NCCCNC(=O)[C@H](Cc1ccccc1)NC(=O)[C@@H]1CCCN1C(=O)CCCc1ccccc1
val: -5.3
//
compound: CC(Cc1ccccc1)(NC(=O)[C@@H]1CCCN1C(=O)CCCc1ccc(O)cc1)C(=O)NCCCN.Cl (some centres not stated)
val: 8
//
compound: O=C(NCC(=O)N1CCC[C@H]1C(=O)O)[C@@H](Cc1ccccc1)NC(=O)[C@@H]1CCCN1C(=O)CCCc1ccc(O)cc1 ({Butanoyl(4-(4-HOPh))}-P[dF]GP-OH)
val: -1
//
compound: CC(Cc1ccccc1)(NC(=O)[C@@H]1CCCN1C(=O)CCCc1ccc(O)cc1)C(=O)NCC(=O)N1CCC[C@H]1C(=O)O (some centres not stated) ({Butanoyl(4-(4-HOPh))}-P[ξαMeF]GP-OH)
val: 6
//
compound: CC(Cc1ccccc1)(NC(=O)[C@@H]1CCCN1C(=O)CC12CC3CC(CC(C3)C1)C2)C(=O)N[C@@H](CCCN=C(N)N)C(=O)O (some centres not stated)
val: 2
//
compound: CC(Cc1ccccc1)(NC(=O)[C@@H]1CCCN1C(=O)CCCc1ccccc1)C(=O)NCCCN.Cl (some centres not stated)
val: 0.5
//
compound: CC(CN[C@@H](CCCN=C(N)N)C(=O)O)(Cc1ccccc1)NC(=O)[C@@H]1CCCN1C(=O)CCCc1ccccc1 (some centres not stated)
val: -23

###

System: Canis familiaris
procedure.details: In vivo percent change in canine renal blood flow (RBF) at 300 ug/Kg/min.
Format: functional, Canis lupus familiaris, Kidney
Square brackets hold non-standard residues; d marks the D form. Peptide text beside a SMILES is read from it. * marks the point of attachment. ξ: configuration not given here. ξαMeF = CC(N)(Cc1ccccc1)C(=O)O; Bz = O=C(c1ccccc1)*
reported.endpoint: Change (%)

compound: Cl.Cl.NCCCNC(=O)[C@H](Cc1ccccc1)NC(=O)[C@@H]1CCCN1
target.system: Canis familiaris
value.units: %
val: 6.5
//
compound: CC(Cc1ccccc1)(NC(=O)[C@@H]1CCCN1C(=O)c1ccccc1)C(=O)N1CCC[C@H]1C(=O)O (some centres undefined) (Bz-Pro-[ξαMeF]-Pro-OH)
target.system: Canis familiaris
value.units: %
val: 0
//
compound: CC(CN[C@@H](CCCN=C(N)N)C(=O)O)(Cc1ccccc1)NC(=O)[C@@H]1CCCN1 (some centres undefined)
target.system: Canis familiaris
value.units: %
val: 7
//
compound: CC(Cc1ccccc1)(NC(=O)[C@@H]1CCCN1C(=O)CCCc1ccc(O)cc1)C(=O)NCCCN.Cl (some centres undefined)
target.system: Canis familiaris
value.units: %
val: 11.7
